- TEST_METHOD_NOTES: In vitro metabolism, mouse liver microsomes
- Format: in vitro ADME
- CONDITION_CONTEXT: % remaining of compound after 60 min treatment with mouse liver microsomes
- Protocol: In vitro metabolism of NUCC-176242 and NUCC-176248 were tested using mouse liver microsomes and a mouse S9 fraction. (See FIG. 9).
Recorded MLM % at 60 min values for a group of compounds are listed next.

MOLECULE_SMILES	MLM % at 60 min
Cn1nc(C(F)(F)F)cc1-c1ccc(OCc2ccc(Cl)cc2)c(-c2cc(C(F)(F)F)cc(C(F)(F)F)c2)c1O	72.9%
Oc1c(-c2cc(C(F)(F)F)[nH]n2)ccc(Oc2ccc(Cl)cc2)c1-c1cc(C(F)(F)F)cc(C(F)(F)F)c1	75.8%
CCc1c(OCc2ccc(Cl)cc2)ccc(-c2cc(C(F)(F)F)n[nH]2)c1O	46.4%
CCCCCCOc1ccc(-c2cc(C(F)(F)F)n[nH]2)c(O)c1-c1cc(C(F)(F)F)cc(C(F)(F)F)c1	66.6%

Proceed to the following item.
Prompt: Tell me the measured MLM % at 60 min of Oc1c(-c2cc(C(F)(F)F)n[nH]2)ccc(OCCN2CCCC2)c1-c1cc(C(F)(F)F)cc(C(F)(F)F)c1 , please.
Response: 30.5%

// data source = patent US20250084040A1
